- assayedSystem: Cytochrome P450 2D6 (Homo sapiens)
- measurementProtocol: Cytochrome panel assay with activity outcomes
- details: recombinant CYP, pro-luciferin dealkylation, luminescence, p450-cyp2d6; series mostly up to 57.1 µM
Out of some 16,000 compounds screened, about 2,600 (16%) were called active. Another 20% or so got no clear call; they are omitted. Calls come from the whole dose curve; as a rule, active = well fitted curve in the direction sought with a large enough effect; inconclusive = small, poorly fitted or top-dose-only effect, or effect the other way; inactive = no such curve, though single readings can be large or run the other way. A selection follows.
Labels: active, inactive

> print(dat)
                                    molecule  qualitativelabel
 1  Cc1c(NC(=O)CCCOc2ccccc2)cccc1[N+](=O)[O-]            active
 2  COc1cccc(-c2[nH]nc3c2C(c2ccsc2)C(C#N)=C(N)O3)c1 (configuration not stated)          inactive
 3  Cc1c(C(c2cccc([N+](=O)[O-])c2O)c2c(C)n(C)n(-c3ccccc3)c2=O)c(=O)n(-c2ccccc2)n1C          inactive
 4    COc1cccc(-c2ccc3ncnc(Nc4ccccc4)c3c2)c1          inactive
 5    COc1cccc(Cn2c(=O)cnc3cnc(N(C)C)nc32)c1          inactive
 6  O=C1CC(=O)C(n2cncn2)C(c2cccc(Cl)c2)C1 (configuration not stated)          inactive
 7  C/C(=C\c1ccco1)C1C(C#N)=C(N)Oc2n[nH]c(-c3ccccc3)c21 (configuration not stated)            active
 8  Cc1cc(NC(=O)COC(=O)c2ccc(S(=O)(=O)N3CCCc4ccccc43)cc2)no1          inactive
 9              Nc1nc2c(ncn2COCCO)c(=O)[nH]1          inactive
10    COc1cccc(-c2ccc3ncnc(NC4CCNCC4)c3c2)c1          inactive
11  COc1ccc(C)cc1NC(=O)c1cc2cc3ccc(C)cc3nc2o1          inactive
12                 O=C(CCOc1ccccc1)Nc1ccccc1          inactive
13     Cc1ccc(OCCCC(=O)Nc2ccccc2C(F)(F)F)cc1          inactive
14  COc1cc(/C=C(/NC(=O)c2ccccc2)C(=O)Nc2ccccc2)c([N+](=O)[O-])cc1OC          inactive
15      CCC(=O)Nc1cccc(C(=O)/C=C/c2ccccc2)c1          inactive
16        COc1cccc(-c2ccc3ncnc(N(C)C)c3c2)c1            active
17  Cc1ccc(C)c(-c2nn(-c3cc(N4CCN(CCO)CC4)ccc3[N+](=O)[O-])c(=O)c3ccccc23)c1          inactive
18           Cc1n[nH]c(C)c1S(=O)(=O)N1CCOCC1          inactive
19  CC(=O)NS(=O)(=O)c1ccc(NC(=S)NC(=O)C(C)(C)C)cc1          inactive
20  CCCN1C(=O)C2(/C(=C(\O)c3ccc4c(c3)OCCO4)C(=O)C(=O)N2CCCOC)c2ccccc21 (configuration not stated)          inactive
21                                 NCCC(=O)O          inactive
22  Cc1c(-n2cc(C(=O)c3cc(Cl)ccc3O)cc(C#N)c2=O)c(=O)n(-c2ccccc2)n1C          inactive

====

- assayedSystem: Cytochrome P450 2D6 (Homo sapiens)
- measurementProtocol: Cytochrome panel assay with activity outcomes; for activity, negative = inhibition: % is set by controls: 0 for no effect and ±100 for the full control effect
- details: recombinant CYP, pro-luciferin dealkylation, luminescence, p450-cyp2d6; series mostly up to 57.1 µM
About 2,600 (16%) of roughly 16,000 compounds were called active. About 20% were inconclusive and are not listed. A selection follows.
The compounds listed here are annotated with their activity, negative = inhibition.
reportedEndpoint: activity, negative = inhibition

> print(dat)
                                 smilescode                       assayedsystem                            value
1        Cc1cc(C(=O)CSC(=S)SC(C)(C)C)ccc1Cl  Cytochrome P450 2D6 (Homo sapiens)  -0.319% [at 11.4 µM] (inactive)
2           O=C1CCCC=C1[C@@H](O)COCc1ccccc1  Cytochrome P450 2D6 (Homo sapiens)   -20.2% [at 11.4 µM] (inactive)
3                COc1ccc(OC[C@@H](CO)OC)cc1  Cytochrome P450 2D6 (Homo sapiens)   -7.62% [at 11.4 µM] (inactive)
4           C[C@@]1(C(=O)O)CCC[C@@H]1C(=O)O  Cytochrome P450 2D6 (Homo sapiens)    9.41% [at 11.4 µM] (inactive)
5  CS[C@]12C(=O)C[C@]3(C)[C@@H](CC[C@@]3(O)C(=O)CO)[C@@H]1CCC1=CC(=O)CC[C@]12C  Cytochrome P450 2D6 (Homo sapiens)   0.401% [at 11.4 µM] (inactive)
6  O=C(O)[C@@H]1CS[C@@]2(CCCN(Cc3ccccc3)C2)N1  Cytochrome P450 2D6 (Homo sapiens)   -2.15% [at 11.4 µM] (inactive)

====

- assayedSystem: Cytochrome P450 2D6 (Homo sapiens)
- measurementProtocol: Cytochrome panel assay with activity outcomes
- details: recombinant CYP, pro-luciferin dealkylation, luminescence, p450-cyp2d6; series mostly up to 57.1 µM
Among all 16,000 compounds or so, about 2,600 (16%) were called active. Roughly 20% stayed inconclusive and do not appear here. Only a sample is shown.
reportedEndpoint: AC50

> print(dat)
                                   compound  reportedendpoint            value
1  CNC(=O)[C@@H]1O[C@@H](n2cnc3c(NCc4ccc(N)cc4)ncnc32)[C@@H](O)[C@H]1O              AC50         inactive
2  Cc1cc2c(ncn2Cc2ccccc2)c([N+](=O)[O-])c1C              AC50         inactive
3     COc1ccc(CCNC[C@H](O)c2ccc(O)cc2)cc1OC              AC50         inactive
4                 O=c1cc(CO)oc(CN2CCCC2)c1O              AC50         inactive
5  C#CCSc1nnc(-c2cc3c(C(F)(F)F)nn(C)c3s2)n1C              AC50         inactive
6  COc1ccc(CNCCC(c2ccc(OC(C)C)cc2)C(C)C)cc1OC (stereo unspecified)              AC50  251 nM (active)

====

- assayedSystem: Cytochrome P450 2D6 (Homo sapiens) (UniProt P10635)
- Sequence (P10635 whole entry, looked up): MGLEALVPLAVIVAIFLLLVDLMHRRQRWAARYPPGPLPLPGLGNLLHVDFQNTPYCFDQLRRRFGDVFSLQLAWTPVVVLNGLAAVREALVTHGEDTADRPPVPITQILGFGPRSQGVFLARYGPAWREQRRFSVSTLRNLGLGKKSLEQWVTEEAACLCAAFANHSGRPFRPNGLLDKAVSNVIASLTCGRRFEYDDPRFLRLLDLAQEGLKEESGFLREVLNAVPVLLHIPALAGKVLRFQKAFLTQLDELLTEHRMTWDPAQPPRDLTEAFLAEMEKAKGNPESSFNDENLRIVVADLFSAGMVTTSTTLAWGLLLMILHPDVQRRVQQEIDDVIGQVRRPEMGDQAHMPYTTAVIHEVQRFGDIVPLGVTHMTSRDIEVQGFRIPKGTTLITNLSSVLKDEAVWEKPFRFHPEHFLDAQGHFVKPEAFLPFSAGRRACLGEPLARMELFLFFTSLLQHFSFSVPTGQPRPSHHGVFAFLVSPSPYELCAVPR
- measurementProtocol: Cytochrome panel assay with activity outcomes
- details: recombinant CYP, pro-luciferin dealkylation, luminescence, p450-cyp2d6; series mostly up to 57.1 µM
Hit rate of the full screen: of about 16,000 compounds, about 2,600 (16%) were called active. Inconclusive results (about 20%) are left out. The call rests on the fitted dose curve; in most records, active means well fitted curve in the direction sought with a large enough effect; inconclusive means small, poorly fitted or top-dose-only effect, or effect the other way; inactive means no such curve, though single readings can be large or run the other way. A selection follows.
Possible outcomes: active, inactive

> print(dat)
                                    compound  qualitativelabel
 1  Cc1noc(C)c1C(=O)N1CCC2(CCN(Cc3ccncc3)CC2)CC1          inactive
 2        Nc1ccccc1C(=O)/C=C\c1ccc2c(c1)OCO2            active
 3  COCOc1cc(OC)ccc1C(=O)/C=C\c1ccc2c(c1)OCO2            active
 4   CN(C)C(=O)CN(c1ccc2c(c1)OCO2)S(C)(=O)=O          inactive
 5  COC(=O)C1=C(C)NC(C)=C(C(=O)OC(C)C)C1c1cccc2nonc12 (stereo not given)          inactive
 6  Cc1cc(C(=O)NNC(=S)NC(C)c2ccccc2)c2ccccc2n1 (stereo not given)          inactive
 7  CCOC(=O)c1c(NC(=O)/C=C/c2ccc3c(c2)OCO3)sc(C)c1CC          inactive
 8  COc1cc(/C=C(\C#N)C(=O)NCC2CCCO2)c([N+](=O)[O-])cc1OC (stereo not given)          inactive
 9  COC(=O)C1=C(C)NC(C)=C([N+](=O)[O-])[C@H]1c1ccccc1C(F)(F)F          inactive
10  COC(=O)C1=C(C)NC(C)=C([N+](=O)[O-])[C@@H]1c1ccccc1C(F)(F)F            active

====

- assayedSystem: Cytochrome P450 2D6 (Homo sapiens) (UniProt P10635)
- measurementProtocol: Cytochrome panel assay with activity outcomes
- details: recombinant CYP, pro-luciferin dealkylation, luminescence, p450-cyp2d6; series mostly up to 57.1 µM
Among all 16,000 compounds or so, about 2,600 (16%) were called active. Another 20% or so got no clear call; they are omitted. Calls follow the shape of the dose curve; as a rule, active = well fitted curve in the direction sought with a large enough effect; inconclusive = small, poorly fitted or top-dose-only effect, or effect the other way; inactive = no such curve, though single readings can be large or run the other way. Only a sample is shown.
Labels: t for active, f for inactive

> print(dat)
                                    compound  qualitativelabel
 1       Cc1cnn(-c2cc(N/N=C/c3ccccc3)ncn2)c1                 f
 2  COc1ccc(C(C(=O)NC2CCCC2)N(C(=O)c2snc(-c3ccc(F)cc3)c2N)c2ccccc2)cc1 (stereo not given)                 f
 3     CCOC(=O)c1[nH]c2ccc(Cl)cc2c1-c1ccccc1                 f
 4  CCOC(=O)N1CCN(C(=O)c2cccn3c(=O)c4cc(Cl)ccc4nc23)CC1                 f
 5  CCCc1cc(=O)oc2cc(OCC(=O)N3CCc4ccccc43)ccc12                 f
 6  COc1ccccc1C(=O)Nc1cc2c(ccc3ccccc32)oc1=O                 f
 7  CCOC(=O)N1CCN(c2c(-c3ccccc3)c3cc(Cl)ccc3[nH]c2=O)CC1                 t
 8  CC(=O)CC(=O)[C@@]1(O)CC[C@@H]2[C@@H]3C=C(C)C4=CC(=O)CC[C@@H]4[C@H]3CC[C@]21C                 f
 9  CCC(=O)N[C@@H]1Cc2ccccc2[C@@H](c2ccccc2)C1                 f
10  COc1ccc(C(=O)Nc2ccc(C(=O)OCC(=O)c3ccccc3)cc2)cc1                 f
